Listed here: items and their measured pIC50.
biological target: CD73 (Homo sapiens (Human)); type: biochemical; settings: 1 mM NaH2PO4 in enzyme buffer, CD73 0.3 nM, AMP 15 uM
Sequence (P21589 27-574): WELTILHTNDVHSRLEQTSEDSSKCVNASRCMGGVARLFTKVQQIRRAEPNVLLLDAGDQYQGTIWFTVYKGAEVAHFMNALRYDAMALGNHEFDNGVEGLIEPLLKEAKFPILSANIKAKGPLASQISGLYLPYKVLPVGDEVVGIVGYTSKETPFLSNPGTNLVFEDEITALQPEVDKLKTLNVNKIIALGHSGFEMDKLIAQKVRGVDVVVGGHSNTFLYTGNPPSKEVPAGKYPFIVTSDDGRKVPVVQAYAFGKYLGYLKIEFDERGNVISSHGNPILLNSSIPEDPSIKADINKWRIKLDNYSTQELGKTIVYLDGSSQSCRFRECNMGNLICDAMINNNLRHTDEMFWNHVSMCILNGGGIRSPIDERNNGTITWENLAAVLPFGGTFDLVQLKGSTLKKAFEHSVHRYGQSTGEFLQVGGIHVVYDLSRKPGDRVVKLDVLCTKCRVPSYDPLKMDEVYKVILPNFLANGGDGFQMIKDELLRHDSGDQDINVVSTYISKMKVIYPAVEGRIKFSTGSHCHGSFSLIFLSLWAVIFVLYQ
Lab note: report pIC50 as minus log10 of the concentration in molar units, number only.

molecule	readout	result
CC1(C)CCN(c2cc(-c3c[nH]c(=O)[nH]c3=O)nc3ncnn23)C1	pIC50	8.18
O=c1[nH]cc(-c2cc(N3CC(Oc4ccc(C(F)F)cn4)C(F)(F)C3)c3nccn3n2)c(=O)[nH]1 (stereo not shown)	pIC50	8.67
O=c1[nH]cc(-c2cc([C@H]3C[C@@H]3c3ccc4ccn(CC(F)(F)F)c4n3)c3nccn3n2)c(=O)[nH]1 [Example 126]	pIC50	8.95
CC1(C)CN(c2cc(-c3c[nH]c(=O)[nH]c3=O)nn3c(Cl)c(Cl)nc23)CC1(F)F	pIC50	8.76
CC(C)NC(=O)OCC(F)(F)COc1cc(-c2c[nH]c(=O)[nH]c2=O)nn2ncnc12	pIC50	9.85

Value of pIC50 reported for the molecule O=c1[nH]cc(-c2cc([C@H]3C[C@@H]3c3ccc4cnc(C(F)(F)F)cc4c3)c3nccn3n2)c(=O)[nH]1 [Example 133] is 9.04

Value of pIC50 reported for the molecule CC(C)NC(=O)O[C@@H]1CN(c2cc(-c3c[nH]c(=O)[nH]c3=O)nn3ccnc23)CC1(F)F is 8.01

Value of pIC50 reported for the molecule O=c1[nH]cc(-c2cc(N3CC[C@H](OC(F)F)C3)c3nccn3n2)c(=O)[nH]1 is 7.27

Value of pIC50 reported for the molecule O=c1[nH]cc(-c2cc(N3CC(F)(F)C(F)(F)C3)c3ncc(F)n3n2)c(=O)[nH]1 is 7.97
